The following variants are listed with their measured protein stability index values.
B1: C10orf62 (parent)
chain: RALEEVEMKLQKNFLTQRENTIAG

- Variants of: B1
- Experimental Details: protein stability index of a GFP-peptide fusion (GPS, HEK-293T) (PSI 1-6); higher = more stable;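 also: lentivirally expressed fusions sorted by FACS into six bins by GFP to DsRed ratio, PSI derived from sequencing read proportions per bin multiplied by bin number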
- Cond: c terminus: a fixed tail appended
Respond with the number and no other words.

Before answering, review these 4 worked examples.
L10V
4.04
Q17E
3.96
T16A
2.98
I22Q
4.09

Next up:
Data request: Endpoint output: protein stability index of `K12E` . Value?
Data returned: 4.05
